- Assay remarks: soluble fraction after stress (log2 fold change); higher = more stays soluble; pooled small domains, quantitative proteomics;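 further: 20 min heating vs room temperature control held 20 min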
- Condition label: stress: 75 degC
Could you please report measured soluble fraction (log2) for the items listed next?
The answer should be a number; do not append a unit.

Prompt line: For the sequence HMYRPLYQQVYDFLVKQIAAGEWGPGESLPSEQALAGRLNVSQGTVRKALDALAADSLIDRRQGKGTYVAE , give its reported soluble fraction (log2).
Response line: -0.236

Prompt line: For the sequence HMHMHTADDFKQLAKHTSNGRLRTRYLALYHFKKGETRTQIAAYLGVARGSVNTWVSNYLAYGLEGLQS , give its reported soluble fraction (log2).
Response line: -2.53

Prompt line: For the sequence HMGVTVDEVHRNFESGMNVVHKKFGAGVVDSFDEGKIRINFDGVIKVFIADVLINSGMLESVSYTH , give its reported soluble fraction (log2).
Response line: -0.832

Prompt line: For the sequence HMSVDDYLKFSGSGTYWNTQDRGKTYLVNGQQRPLRDKEYLPDVMHRHVIDFITKHRDRPFYIYYSM , give its reported soluble fraction (log2).
Response line: 0.173

Prompt line: For the sequence HMAPLRTQYVNVNYANAAEIKTLISGADKEVGSLLSERGSVVVDKRTNTLIIQDTQARLNDIGDLIEQLD , give its reported soluble fraction (log2).
Response line: 0.144

Prompt line: For the sequence HMKDVVAPMSGRVVRLMVAAGDEVVKRQALVVVEAMKMENVLTAPKEGRIKKVPVREGMTVEVGQTLVSFE , give its reported soluble fraction (log2).
Response line: -1.88

Prompt line: For the sequence HMTVVLPGESLTVNIIQEGKELGQGVGYLDDGTMVVIEDGRRYIDQTIEVTVTRVLQTVAGRMIFAQLT , give its reported soluble fraction (log2).
Response line: -4.46

Prompt line: For the sequence HMLMDVRVPDIIGVEINQAKEILTASSLLIGKITYVSLPEIEKDLVIETSVLAGRRVSAGTVIDITVNKE , give its reported soluble fraction (log2).
Response line: -2.09

Prompt line: For the sequence HMATHWHITPNPNNGKFLISGLMQDDSFHLMDASGQWLRQLRTVNQELDLDLQPGVYFLKDNSGSVMKFVV , give its reported soluble fraction (log2).
Response line: -1.13

Prompt line: For the sequence HMQPSQTLSATVEFPDRLDRFLALAFPEVSRARFQRLIAEGHVSVEGVPATEIRHKLKAGQRVEAVIPPA , give its reported soluble fraction (log2).
Response line: -0.276

Prompt line: For the sequence HMLDEKFLSELMLALLRNHRRGLRAEVLLHKVRSNMELDGYKSLLVGVGRMEMWELAREIIDFVKAEG , give its reported soluble fraction (log2).
Response line: -4.4

Prompt line: For the sequence HMADASVTAYFKIAEDRLQGRLPDTFSEASLKARYQLTPAQLTAVLTRIAQEGWAERKPGYGWAFSSML , give its reported soluble fraction (log2).
Response line: -1.62
